Sourced from patent US7326732B2

assayTarget: human EP4 receptor (Homo sapiens, UniProt P35408)
Construct: expressed in transfected cells
Sequence (P35408 whole entry): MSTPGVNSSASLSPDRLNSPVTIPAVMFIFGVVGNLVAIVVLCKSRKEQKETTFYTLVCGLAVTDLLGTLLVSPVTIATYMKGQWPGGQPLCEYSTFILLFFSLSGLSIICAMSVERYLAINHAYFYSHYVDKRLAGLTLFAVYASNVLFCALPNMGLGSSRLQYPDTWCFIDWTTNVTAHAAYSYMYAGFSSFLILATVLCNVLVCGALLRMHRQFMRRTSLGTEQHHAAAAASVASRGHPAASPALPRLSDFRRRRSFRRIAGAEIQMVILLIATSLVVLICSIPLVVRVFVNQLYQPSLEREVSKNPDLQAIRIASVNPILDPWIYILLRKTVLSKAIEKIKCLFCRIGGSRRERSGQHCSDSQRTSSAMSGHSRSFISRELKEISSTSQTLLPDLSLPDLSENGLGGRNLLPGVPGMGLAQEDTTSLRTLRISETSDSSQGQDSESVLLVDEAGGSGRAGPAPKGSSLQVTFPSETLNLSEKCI
experimentalProtocol: Binding ability to human EP receptors ([3H]PGE2 displacement), EP4
experimentalSetup: membranes expressing human EP4; [3H]PGE2 1 nM; Cheng-Prusoff; read-out: pKi (M) EP4 (converted)
propertyName: Ki

* O=C(Nc1cccc(Cc2nnn[nH]2)c1)c1cccc(-c2cccc(F)c2)n1 | > 1e-05 M
* O=C(Nc1cccc(/C=C/c2nnn[nH]2)c1)c1cccc(-c2ccccc2)n1 | < 1e-07 M
* O=C(O)CCc1cccc(NC(=O)c2ccc(-c3cccc(Cl)c3)o2)c1 | < 1e-05 M
* O=C(O)COc1cccc(NC(=O)c2ccc(-c3cccc(F)c3)o2)c1 | > 1e-05 M
* O=C(O)Cc1cccc(NC(=O)c2ccc(-c3cc(Cl)cc(Cl)c3)o2)c1 | < 1e-07 M
* COc1ccccc1-c1ccc(C(=O)Nc2cccc(CC(=O)O)c2)o1 | > 1e-05 M
* O=C(O)Cc1cccc(NC(=O)c2ccc(-c3cccc4ccccc34)o2)c1 | < 1e-06 M
* O=C(O)c1cc2cc(NC(=O)c3ccc(-c4ccccc4)o3)ccc2o1 | > 1e-05 M
* O=C(O)Cc1cccc(NC(=O)c2ccc(-c3ccc(Cl)cc3Cl)o2)c1 | > 1e-05 M
